biological target: Fuc(a1-2)[Gal(a1-3)]Gal(b1-4)[Fuc(a1-3)]GlcNAc(b1-3)GalNAc; experiment: glycan array binding signal (z-score within array); higher = stronger binding; conditions: glycan notation: IUPAC condensed, linker removed
The full list was thinned out, with the strongest signals kept by preference.

binder | glycan array binding signal (z-score)
Mermaid3 (Stilbonema majum) (protein) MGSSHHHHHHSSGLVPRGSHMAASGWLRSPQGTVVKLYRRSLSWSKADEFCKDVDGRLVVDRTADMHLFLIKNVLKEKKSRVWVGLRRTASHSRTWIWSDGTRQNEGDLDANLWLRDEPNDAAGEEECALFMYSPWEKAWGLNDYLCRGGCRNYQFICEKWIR | -0.592
ECA (Erythrina cristagalli), P83410 (protein) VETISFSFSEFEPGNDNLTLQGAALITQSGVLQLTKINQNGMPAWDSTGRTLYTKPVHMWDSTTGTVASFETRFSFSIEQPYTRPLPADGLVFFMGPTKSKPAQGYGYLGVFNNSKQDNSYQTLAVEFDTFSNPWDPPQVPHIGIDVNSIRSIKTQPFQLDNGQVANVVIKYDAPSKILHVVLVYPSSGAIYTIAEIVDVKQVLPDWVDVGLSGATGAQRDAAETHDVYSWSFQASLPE | -0.399
Morniga (Morus nigra) (protein) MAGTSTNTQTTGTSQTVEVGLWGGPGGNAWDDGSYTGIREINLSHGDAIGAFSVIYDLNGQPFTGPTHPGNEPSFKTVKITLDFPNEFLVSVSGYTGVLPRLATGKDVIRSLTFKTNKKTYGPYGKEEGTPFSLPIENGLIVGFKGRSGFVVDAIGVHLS | -0.329
CrataBL (Crataeva tapia), C0HJA4 (protein) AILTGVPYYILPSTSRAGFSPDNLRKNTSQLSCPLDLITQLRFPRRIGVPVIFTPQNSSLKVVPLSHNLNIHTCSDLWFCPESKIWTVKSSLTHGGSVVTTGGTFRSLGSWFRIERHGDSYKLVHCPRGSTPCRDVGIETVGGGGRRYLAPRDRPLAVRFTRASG | -0.054
SUN4 (Saccharomyces cerevisiae), P53616 (protein) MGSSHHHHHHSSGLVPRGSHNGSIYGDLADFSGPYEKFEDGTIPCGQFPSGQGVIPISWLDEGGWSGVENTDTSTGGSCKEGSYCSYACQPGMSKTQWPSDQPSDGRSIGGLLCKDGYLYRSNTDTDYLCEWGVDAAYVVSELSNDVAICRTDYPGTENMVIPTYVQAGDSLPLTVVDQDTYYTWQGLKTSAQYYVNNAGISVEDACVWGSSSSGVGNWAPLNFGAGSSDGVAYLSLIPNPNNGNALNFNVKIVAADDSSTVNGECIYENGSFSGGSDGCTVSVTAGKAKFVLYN | -0.487
PpFlo2 (Pichia pastoris) (protein) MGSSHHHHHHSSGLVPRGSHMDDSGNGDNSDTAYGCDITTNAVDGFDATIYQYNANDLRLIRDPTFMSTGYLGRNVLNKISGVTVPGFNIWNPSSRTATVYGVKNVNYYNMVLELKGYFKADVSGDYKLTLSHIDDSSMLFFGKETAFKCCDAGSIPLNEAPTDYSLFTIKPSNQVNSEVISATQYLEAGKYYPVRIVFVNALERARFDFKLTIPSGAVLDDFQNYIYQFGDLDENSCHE | -0.297
